Values were extracted from ChEMBL document CHEMBL1961873.

- TARGET DESC: Casein kinase I isoform gamma-3 (Homo sapiens) (UniProt Q9Y6M4);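 also: reported value is the mean percent inhibition of the kinase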
- Sequence (Q9Y6M4 whole entry, looked up, canonical isoform): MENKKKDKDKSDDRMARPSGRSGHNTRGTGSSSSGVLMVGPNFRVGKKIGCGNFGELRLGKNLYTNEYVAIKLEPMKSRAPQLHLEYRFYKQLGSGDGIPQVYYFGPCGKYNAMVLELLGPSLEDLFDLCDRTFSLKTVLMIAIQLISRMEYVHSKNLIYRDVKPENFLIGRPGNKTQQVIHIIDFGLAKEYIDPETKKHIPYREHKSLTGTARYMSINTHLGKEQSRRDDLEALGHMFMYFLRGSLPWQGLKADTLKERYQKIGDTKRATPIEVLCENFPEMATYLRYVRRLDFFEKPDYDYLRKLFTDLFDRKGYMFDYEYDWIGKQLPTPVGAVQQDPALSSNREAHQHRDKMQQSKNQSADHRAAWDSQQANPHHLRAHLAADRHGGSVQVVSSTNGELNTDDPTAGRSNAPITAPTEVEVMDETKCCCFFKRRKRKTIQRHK
- CONDITION DETAILS: at 0.1 µM
Below, each entry is listed with its recorded inhibition.
Give the value in % but do not write % after it.

Examples with their reported inhibition follow.
CS(=O)(=O)Nc1ccc(-c2ccc3c(NC(=O)C4CC4)n[nH]c3c2)cc1 | 4.47
Cc1cc(O)cc(C)c1/C=C/c1cncc(C(N)=O)c1 | 2.87

## Task Enter reported inhibition observed with Casein kinase I isoform gamma-3 (Homo sapiens) (UniProt Q9Y6M4) for `Fc1ccc(Nc2nccc(-c3c(-c4ccc(C(F)(F)F)cc4)nn4ncccc34)n2)cc1F`
## Result 3.32

## Task Enter reported inhibition observed with Casein kinase I isoform gamma-3 (Homo sapiens) (UniProt Q9Y6M4) for `CNC(=O)c1cncc(/C=C/c2ccccc2C)c1`
## Result 2.23

## Task Enter reported inhibition observed with Casein kinase I isoform gamma-3 (Homo sapiens) (UniProt Q9Y6M4) for `COc1c(C(N)=O)cc(-c2ccc(Cl)cc2)cc1-c1ccc(S(N)(=O)=O)cc1`
## Result 3.12

## Task Enter reported inhibition observed with Casein kinase I isoform gamma-3 (Homo sapiens) (UniProt Q9Y6M4) for `CC1(C)CC(n2cnc(-c3ccc(F)cc3)c2-c2ccnc(N)n2)CC(C)(C)N1`
## Result -0.9

## Task Enter reported inhibition observed with Casein kinase I isoform gamma-3 (Homo sapiens) (UniProt Q9Y6M4) for `CCN1CCC(C(=O)Nc2n[nH]c3nnc(-c4cccc(F)c4F)cc23)CC1`
## Result 0.17

## Task Enter reported inhibition observed with Casein kinase I isoform gamma-3 (Homo sapiens) (UniProt Q9Y6M4) for `O=C(O[C@H]1CN[C@H](C#Cc2cc3ncnc(Nc4ccc(OCc5cccc(F)c5)c(Cl)c4)c3s2)C1)N1CCOCC1`
## Result 4.52

## Task Enter reported inhibition observed with Casein kinase I isoform gamma-3 (Homo sapiens) (UniProt Q9Y6M4) for CC1=C(C(=O)Nc2ccc3[nH]nc(C)c3c2)C(c2ccc(C(F)(F)F)cc2)CC(=O)N1 (stereo not given)
## Result 2.16

###

- TARGET DESC: Tyrosine-protein kinase ABL1 (Homo sapiens) (UniProt P00519)
- Sequence (P00519 whole entry): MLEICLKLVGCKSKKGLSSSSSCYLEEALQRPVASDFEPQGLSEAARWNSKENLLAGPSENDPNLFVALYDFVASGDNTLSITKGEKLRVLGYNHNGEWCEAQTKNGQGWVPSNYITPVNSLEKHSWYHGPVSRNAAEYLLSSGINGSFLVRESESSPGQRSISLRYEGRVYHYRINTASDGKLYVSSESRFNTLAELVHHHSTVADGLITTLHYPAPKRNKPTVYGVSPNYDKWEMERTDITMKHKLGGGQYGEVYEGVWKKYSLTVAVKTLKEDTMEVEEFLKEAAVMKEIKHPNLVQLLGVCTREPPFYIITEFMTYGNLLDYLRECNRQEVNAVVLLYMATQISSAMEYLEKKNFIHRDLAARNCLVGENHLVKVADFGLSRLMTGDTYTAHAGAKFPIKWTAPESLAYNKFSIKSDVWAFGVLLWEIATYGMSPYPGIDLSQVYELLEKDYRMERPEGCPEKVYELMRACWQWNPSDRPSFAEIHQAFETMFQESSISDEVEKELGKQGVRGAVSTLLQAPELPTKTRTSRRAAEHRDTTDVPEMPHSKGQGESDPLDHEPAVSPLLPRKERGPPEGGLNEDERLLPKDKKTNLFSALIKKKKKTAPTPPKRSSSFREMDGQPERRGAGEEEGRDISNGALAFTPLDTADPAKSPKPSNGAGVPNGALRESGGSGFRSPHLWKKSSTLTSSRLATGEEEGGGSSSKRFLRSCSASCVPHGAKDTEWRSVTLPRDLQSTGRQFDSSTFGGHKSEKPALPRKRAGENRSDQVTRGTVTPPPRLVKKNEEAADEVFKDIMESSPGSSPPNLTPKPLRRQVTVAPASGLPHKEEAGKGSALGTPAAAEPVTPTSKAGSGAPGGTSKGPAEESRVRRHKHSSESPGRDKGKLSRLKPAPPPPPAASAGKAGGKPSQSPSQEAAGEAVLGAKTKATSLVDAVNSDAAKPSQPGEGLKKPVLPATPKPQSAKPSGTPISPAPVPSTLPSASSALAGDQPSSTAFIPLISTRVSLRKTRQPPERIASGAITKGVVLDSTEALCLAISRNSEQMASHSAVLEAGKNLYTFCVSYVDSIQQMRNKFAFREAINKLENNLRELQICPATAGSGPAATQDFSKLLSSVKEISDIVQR
- CONDITION DETAILS: at 0.1 µM
- Description: GSK_PKIS: ABL1 mean inhibition at 0.1 uM [Nanosyn]
Below, each entry is listed with its recorded inhibition.

Examples with their reported inhibition follow.
c1ccc(-c2n[nH]cc2-c2ccnc(-c3ccc(OCCn4ccnc4)cc3)c2)nc1 | 30.5%
O=C(Nc1n[nH]c2nnc(-c3cccnc3)cc12)C1CC1 | 3.47%

## Task // inhibition lookup, key: `CCn1c(-c2nonc2N)nc2cncc(C(=O)NCCNC)c21`
## Result 3.3%

###

- TARGET DESC: Cyclin-dependent kinase 1 (Homo sapiens) (UniProt P06493);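 also: enzyme assay on the CDK1/cyclin B complex, reported as mean percent inhibition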
- Sequence (P06493 whole entry, looked up): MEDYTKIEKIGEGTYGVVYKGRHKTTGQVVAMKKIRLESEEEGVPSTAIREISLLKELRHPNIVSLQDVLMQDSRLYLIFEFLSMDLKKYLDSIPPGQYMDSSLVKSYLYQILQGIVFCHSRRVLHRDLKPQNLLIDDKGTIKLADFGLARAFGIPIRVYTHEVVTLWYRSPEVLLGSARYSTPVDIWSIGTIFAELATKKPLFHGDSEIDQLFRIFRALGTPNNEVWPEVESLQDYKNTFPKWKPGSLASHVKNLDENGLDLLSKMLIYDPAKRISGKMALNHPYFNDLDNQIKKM
- CONDITION DETAILS: at 0.1 µM
TEST READOUT: inhibition (%)
Give the value in % but do not write % after it.

Cc1cc(O)cc(C)c1/C=C/c1cncc(C(N)=O)c1 | 0.12
CCS(=O)(=O)c1ccc(OC)c(Nc2ncc(-c3cccc(F)c3)o2)c1 | 1.72

## Task // inhibition lookup, key: `CNC(=O)c1cncc(/C=C/c2ccccc2C)c1`
## Result 1.72

## Task // inhibition lookup, key: `CNC(=O)c1ncccc1Nc1nc(Nc2cc3c(cc2OC)CCCN3C(=O)CN(C)C)nc2[nH]ccc12`
## Result 1.79

## Task // inhibition lookup, key: `CC1(C)CC(n2cnc(-c3ccc(F)cc3)c2-c2ccnc(N)n2)CC(C)(C)N1`
## Result -0.29

## Task // inhibition lookup, key: `CNC(=O)c1sc(-n2cnc3cc(OC)c(OC)cc32)cc1OCc1ccccc1C(F)(F)F`
## Result 0.69

## Task // inhibition lookup, key: `NS(=O)(=O)c1ccc(N/N=C2\C(=O)Nc3ccc(C(=O)NCc4ccncc4)cc32)cc1`
## Result 31.4

## Task // inhibition lookup, key: `O=C(O[C@H]1CN[C@H](C#Cc2cc3ncnc(Nc4ccc(OCc5cccc(F)c5)c(Cl)c4)c3s2)C1)N1CCOCC1`
## Result 0.36

## Task // inhibition lookup, key: `COc1cccc(Nc2nccc(-c3cnn4ncccc34)n2)c1`
## Result 63.9

## Task // inhibition lookup, key: `Fc1ccc(Nc2nccc(-c3c(-c4ccc(C(F)(F)F)cc4)nn4ncccc34)n2)cc1F`
## Result -0.65

###

- System: Tyrosine-protein kinase ABL1 (Homo sapiens), P00519 [E255K]
- Sequence (P00519 whole entry E255K): as the sequence (P00519 whole entry) above, with E255K counted along it
- CONDITION DETAILS: at 1 µM
Threshold rule: inhibition greater than or equal to 1% is 1; below that, 0.

Cc1nnc(-c2cccc(-c3ccc(C(=O)NCC4CC4)cc3)c2)o1 | 1

## Task In plain terms: is recorded inhibition at least 1% for `CNC(=O)c1cncc(/C=C/c2ccccc2C)c1` ?
## Result 1

## Task In plain terms: is recorded inhibition at least 1% for `COc1cc(N2CCN(C(C)C)CC2)ccc1Nc1nc(Nc2cccc3ncccc23)c2cc[nH]c2n1` ?
## Result 0

## Task In plain terms: is recorded inhibition at least 1% for `CCn1c(-c2nonc2N)nc2cncc(C(=O)NCCNC)c21` ?
## Result 1

## Task In plain terms: is recorded inhibition at least 1% for `N#Cc1cccc(Nc2ncc(-c3ccccc3)o2)c1` ?
## Result 1

###

- Test system: Receptor-type tyrosine-protein kinase FLT3 (Homo sapiens), P36888 [D835Y]
- CONDITION DETAILS: at 1 µM
TEST READOUT: inhibition (%)
Give the value in % but do not write % after it.

Examples with their reported inhibition follow.
CCN1CCC(C(=O)Nc2n[nH]c3nnc(-c4cccc(F)c4F)cc23)CC1 | 1.33
CCOc1ccc2c(-c3ccnc(Nc4cc(OC)cc(C(F)(F)F)c4)n3)cnn2n1 | 17
CC1=C(C(=O)Nc2ccc3[nH]nc(C)c3c2)C(c2ccc(C(F)(F)F)cc2)CC(=O)N1 (centres undefined) | 5.4

## Task Enter reported inhibition observed with Receptor-type tyrosine-protein kinase FLT3 (Homo sapiens), P36888 [D835Y] for `FC(F)(F)CNc1nccc(-c2cnn3ncccc23)n1`
## Result 6

## Task Enter reported inhibition observed with Receptor-type tyrosine-protein kinase FLT3 (Homo sapiens), P36888 [D835Y] for `CS(=O)(=O)CCNCc1ccc(-c2ccc3ncnc(Nc4ccc(OCc5ccccc5)cc4)c3c2)o1`
## Result -0.67

## Task Enter reported inhibition observed with Receptor-type tyrosine-protein kinase FLT3 (Homo sapiens), P36888 [D835Y] for `c1cnn2ncc(-c3ccnc(NCCCN4CCOCC4)n3)c2c1`
## Result 1.99

## Task Enter reported inhibition observed with Receptor-type tyrosine-protein kinase FLT3 (Homo sapiens), P36888 [D835Y] for `CS(=O)(=O)CCNCc1ccoc1-c1ccc2ncnc(Nc3ccc(OCc4ccccc4)cc3)c2c1`
## Result 2.16

## Task Enter reported inhibition observed with Receptor-type tyrosine-protein kinase FLT3 (Homo sapiens), P36888 [D835Y] for `COc1ccccc1-c1cc(/C=C2\C(=O)Nc3ncc(Br)cc32)cc(Br)c1O`
## Result 4.73

## Task Enter reported inhibition observed with Receptor-type tyrosine-protein kinase FLT3 (Homo sapiens), P36888 [D835Y] for `COc1ccc2ncn(-c3cc(O[C@H](C)c4ccccc4C(F)(F)F)c(C(N)=O)s3)c2c1`
## Result 2.3

## Task Enter reported inhibition observed with Receptor-type tyrosine-protein kinase FLT3 (Homo sapiens), P36888 [D835Y] for `CNC(=O)c1sc(-n2cnc3cc(OC)c(OC)cc32)cc1OCc1ccccc1C(F)(F)F`
## Result -2.47

## Task Enter reported inhibition observed with Receptor-type tyrosine-protein kinase FLT3 (Homo sapiens), P36888 [D835Y] for `COC(=O)Nc1nc2cc(Oc3ccc(NC(=O)Nc4ccccc4)cc3)ccc2[nH]1`
## Result 2.44

## Task Enter reported inhibition observed with Receptor-type tyrosine-protein kinase FLT3 (Homo sapiens), P36888 [D835Y] for `CS(=O)(=O)CCNCc1ccc(-c2ccc3ncnc(Nc4ccc(OCc5cccc(C(F)(F)F)c5)cc4)c3c2)o1`
## Result 1.14

## Task Enter reported inhibition observed with Receptor-type tyrosine-protein kinase FLT3 (Homo sapiens), P36888 [D835Y] for `COc1cc(N2CCN(C(C)C)CC2)ccc1Nc1nc(Nc2cccc3ncccc23)c2cc[nH]c2n1`
## Result 1.87

## Task Enter reported inhibition observed with Receptor-type tyrosine-protein kinase FLT3 (Homo sapiens), P36888 [D835Y] for `O=C(O[C@H]1CN[C@H](C#Cc2cc3ncnc(Nc4ccc5c(cnn5Cc5ccccc5)c4)c3s2)C1)N1CCOCC1`
## Result 2.81

## Task Enter reported inhibition observed with Receptor-type tyrosine-protein kinase FLT3 (Homo sapiens), P36888 [D835Y] for `CN(c1ccc(NC(=O)NCCN2CCOCC2)cc1)c1ccnc(Nc2ccc(CS(C)(=O)=O)cc2)n1`
## Result 19.9

## Task Enter reported inhibition observed with Receptor-type tyrosine-protein kinase FLT3 (Homo sapiens), P36888 [D835Y] for `Cc1nnc(-c2cccc(-c3ccc(C(=O)NCC4CC4)cc3)c2)o1`
## Result 0.86

## Task Enter reported inhibition observed with Receptor-type tyrosine-protein kinase FLT3 (Homo sapiens), P36888 [D835Y] for `CN(C)CCNC(=O)Nc1ccc(N(C)c2ccnc(Nc3ccc(CS(C)(=O)=O)cc3)n2)cc1`
## Result 5.12

## Task Enter reported inhibition observed with Receptor-type tyrosine-protein kinase FLT3 (Homo sapiens), P36888 [D835Y] for `Cc1c2ccc(N(C)c3ccnc(Nc4cccc(S(N)(=O)=O)c4)n3)cc2nn1C`
## Result 13.8

## Task Enter reported inhibition observed with Receptor-type tyrosine-protein kinase FLT3 (Homo sapiens), P36888 [D835Y] for `COc1ccc(-c2nn3ncccc3c2-c2ccnc(Nc3ccc(F)c(F)c3)n2)cc1`
## Result 2.1
